Hey, just so you know, these numbers are from paper PMC12298007.

# assay-protocol: Biodistribution, CHO-K1-GRPR + CHO-K1-PSMA dual xenograft mice
# condition-summary: female, NOD SCID, mouse, kidney, intravenous, 1.08 nmol, total radioactivity, Biodistribution: Kidney, Mouse #6; single tracer; dual xenograft; 25.2 h p.i.; 1.08 nmol
measured-endpoint: tissue uptake at 25.2 h (%ID/g)
Give bare numbers, in %ID/g.

For CC(C)C[C@H](NC(=O)C[C@H](O)[C@H](CC(C)C)NC(=O)[C@H](Cc1c[nH]cn1)NC(=O)CNC(=O)[C@@H](NC(=O)[C@H](C)NC(=O)[C@H](Cc1c[nH]c2ccccc12)NC(=O)[C@H](CCC(N)=O)NC(=O)[C@@H](Cc1ccccc1)NC(=O)CN1CCC(NC(=O)CN2CCN(CC(=O)O)CCN(CC(=O)O)CCN(CC(=O)O)CC2)CC1)C(C)C)C(N)=O [[^111In]In-RM2, metal not drawn] the compound record lists tissue uptake at 25.2 h as 1.69

###

# assay-protocol: Biodistribution, CHO-K1-GRPR + CHO-K1-PSMA dual xenograft mice
# condition-summary: female, NOD SCID, mouse, kidney, intravenous, 0.58 nmol, total radioactivity, Biodistribution: Kidney, Mouse #4; single tracer; dual xenograft; 24.2 h p.i.; 0.58 nmol
measured-endpoint: tissue uptake at 24.2 h (%ID/g)
One number for each entry, in %ID/g.

For CC(C)C[C@H](NC(=O)C[C@H](O)[C@H](CC(C)C)NC(=O)[C@H](Cc1c[nH]cn1)NC(=O)CNC(=O)[C@@H](NC(=O)[C@H](C)NC(=O)[C@H](Cc1c[nH]c2ccccc12)NC(=O)[C@H](CCC(N)=O)NC(=O)[C@@H](Cc1ccccc1)NC(=O)CN1CCC(NC(=O)CN2CCN(CC(=O)O)CCN(CC(=O)O)CCN(CC(=O)O)CC2)CC1)C(C)C)C(N)=O [[^111In]In-RM2, metal not drawn] the compound record lists tissue uptake at 24.2 h as 1.14

###

# assay-protocol: Biodistribution, CHO-K1-GRPR + CHO-K1-PSMA dual xenograft mice
# condition-summary: female, NOD SCID, mouse, kidney, intravenous, 0.37 nmol, total radioactivity, Biodistribution: Kidney, Mouse #5; single tracer; dual xenograft; 24.2 h p.i.; 0.37 nmol
measured-endpoint: tissue uptake at 24.2 h

For CC(C)C[C@H](NC(=O)C[C@H](O)[C@H](CC(C)C)NC(=O)[C@H](Cc1c[nH]cn1)NC(=O)CNC(=O)[C@@H](NC(=O)[C@H](C)NC(=O)[C@H](Cc1c[nH]c2ccccc12)NC(=O)[C@H](CCC(N)=O)NC(=O)[C@@H](Cc1ccccc1)NC(=O)CN1CCC(NC(=O)CN2CCN(CC(=O)O)CCN(CC(=O)O)CCN(CC(=O)O)CC2)CC1)C(C)C)C(N)=O [[^111In]In-RM2, metal not drawn] the compound record lists tissue uptake at 24.2 h as 1.42 %ID/g

###

# assay-protocol: Biodistribution, CHO-K1-GRPR + CHO-K1-PSMA dual xenograft mice
# condition-summary: female, NOD SCID, mouse, blood, intravenous, 2.69 nmol, total radioactivity, Biodistribution: Blood, Mouse #9; dual tracer; dual xenograft; 17.6 h p.i.; 2.69 nmol
measured-endpoint: tissue uptake at 17.6 h
Provide the measurement as a number trailed by its unit.

For CC(C)C[C@H](NC(=O)C[C@H](O)[C@H](CC(C)C)NC(=O)[C@H](Cc1c[nH]cn1)NC(=O)CNC(=O)[C@@H](NC(=O)[C@H](C)NC(=O)[C@H](Cc1c[nH]c2ccccc12)NC(=O)[C@H](CCC(N)=O)NC(=O)[C@@H](Cc1ccccc1)NC(=O)CN1CCC(NC(=O)CN2CCN(CC(=O)O)CCN(CC(=O)O)CCN(CC(=O)O)CC2)CC1)C(C)C)C(N)=O [[^111In]In-RM2, metal not drawn] the molecule record lists tissue uptake at 17.6 h as 0.02 %ID/g
